Form field: AVG A450 nm (one value per entry).
- measurement-target: T1, human c-Met ECD-Fc-Flis (human)
- T1 construct: c-Met ECD fused to Fc with flag- and His-tag at the C-terminus; also called human c-Met extracellular domain (ECD)-Fc-Flis fusion; human c-Met-Flis-Fc ECD
- T1 sequence (chain, as listed by the source): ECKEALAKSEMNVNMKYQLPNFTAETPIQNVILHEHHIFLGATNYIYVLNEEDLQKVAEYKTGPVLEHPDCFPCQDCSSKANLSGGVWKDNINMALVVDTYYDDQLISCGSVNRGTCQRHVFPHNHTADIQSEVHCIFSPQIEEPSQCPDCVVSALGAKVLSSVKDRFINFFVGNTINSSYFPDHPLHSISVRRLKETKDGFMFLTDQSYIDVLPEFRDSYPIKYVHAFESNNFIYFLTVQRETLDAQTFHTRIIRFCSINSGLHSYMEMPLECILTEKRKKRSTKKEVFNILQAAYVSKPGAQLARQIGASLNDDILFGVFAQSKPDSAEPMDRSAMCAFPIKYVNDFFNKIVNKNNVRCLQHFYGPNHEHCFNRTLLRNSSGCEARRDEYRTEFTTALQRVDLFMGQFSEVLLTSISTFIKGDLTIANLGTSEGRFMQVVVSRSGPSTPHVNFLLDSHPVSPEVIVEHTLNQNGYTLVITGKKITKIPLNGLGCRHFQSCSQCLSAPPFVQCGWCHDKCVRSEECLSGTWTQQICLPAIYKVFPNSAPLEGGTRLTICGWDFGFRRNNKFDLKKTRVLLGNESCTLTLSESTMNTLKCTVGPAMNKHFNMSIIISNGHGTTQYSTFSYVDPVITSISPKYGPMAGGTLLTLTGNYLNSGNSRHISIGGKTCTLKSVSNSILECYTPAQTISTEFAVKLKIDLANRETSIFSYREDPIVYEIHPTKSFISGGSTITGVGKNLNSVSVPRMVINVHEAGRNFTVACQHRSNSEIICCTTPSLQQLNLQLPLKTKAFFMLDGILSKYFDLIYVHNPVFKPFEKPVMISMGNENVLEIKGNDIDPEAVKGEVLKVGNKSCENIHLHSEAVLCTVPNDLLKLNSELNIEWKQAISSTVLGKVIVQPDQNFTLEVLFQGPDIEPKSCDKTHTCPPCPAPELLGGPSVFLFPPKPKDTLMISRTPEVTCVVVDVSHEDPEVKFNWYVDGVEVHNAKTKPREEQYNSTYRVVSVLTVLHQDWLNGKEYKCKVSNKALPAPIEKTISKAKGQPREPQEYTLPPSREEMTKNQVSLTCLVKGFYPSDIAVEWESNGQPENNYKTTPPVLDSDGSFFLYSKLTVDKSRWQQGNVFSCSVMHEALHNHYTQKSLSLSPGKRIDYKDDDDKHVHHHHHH
- test: HGF-blocking ELISA: HGF signal on coated c-Met ECD-Fc-Flis; Ab 0.48 ng/mL

binder	AVG A450 nm
C8-co-16 (antibody, human IgG2, kappa, V domains shown, Named IgG4 kappa; also called C8-co-16 IgG4) VH: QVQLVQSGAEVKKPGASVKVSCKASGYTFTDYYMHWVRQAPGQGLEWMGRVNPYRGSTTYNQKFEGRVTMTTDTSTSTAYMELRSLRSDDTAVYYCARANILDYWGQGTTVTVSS VL: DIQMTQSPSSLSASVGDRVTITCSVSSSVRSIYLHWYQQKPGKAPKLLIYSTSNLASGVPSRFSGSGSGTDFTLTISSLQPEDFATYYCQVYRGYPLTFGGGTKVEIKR	2.05 A450 nm
C8-6 (antibody, human IgG2, kappa, V domains shown, Named IgG4 kappa; also called C8-6 IgG4) VH: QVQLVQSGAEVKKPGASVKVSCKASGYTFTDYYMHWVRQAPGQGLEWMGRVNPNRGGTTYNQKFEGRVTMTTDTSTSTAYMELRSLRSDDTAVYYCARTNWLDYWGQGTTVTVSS VL: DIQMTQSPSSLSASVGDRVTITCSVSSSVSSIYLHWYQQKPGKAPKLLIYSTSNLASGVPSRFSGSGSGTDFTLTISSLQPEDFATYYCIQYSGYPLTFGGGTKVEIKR	2.56 A450 nm
D11-S17Y (antibody, human IgG2, kappa, V domains shown, Human engineered IgG2 kappa c-Met antibody; also called D11-S17Y IgG2) VH: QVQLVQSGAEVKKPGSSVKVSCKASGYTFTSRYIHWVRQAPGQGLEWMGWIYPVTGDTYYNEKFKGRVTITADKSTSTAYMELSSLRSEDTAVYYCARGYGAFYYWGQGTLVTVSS VL: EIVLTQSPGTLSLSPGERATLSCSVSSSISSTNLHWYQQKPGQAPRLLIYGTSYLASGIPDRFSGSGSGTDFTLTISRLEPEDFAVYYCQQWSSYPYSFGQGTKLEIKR	2.15 A450 nm

Measured values drawn from patent US20100129369A1 for this set.
